Exercise: for every item that follows, state its recorded Cmax/dose.
# protocol: Dose normalized Cmax in rat at 10 mg/kg, po measured upto 72 hrs by LC-MS/MS analysis
# Type: ADME, organism-based
# recorded-conditions: in vivo
Give just the number in µM; leave the unit off.

For CN(C)CCOC(=O)[C@H](N)Cc1cn(C)c2ccccc12.Cl , what is its reported Cmax/dose?
39.5

For Cl.Cn1cc(C[C@@H](NC(=O)[C@H](N)Cc2c[nH]c3ccccc23)C(=O)O)c2ccccc21 , what is its reported Cmax/dose?
3.2

For C[C@H](N)C(=O)N[C@H](Cc1cn(C)c2ccccc12)C(=O)O.Cl , what is its reported Cmax/dose?
13.4

For CCOC(=O)[C@H](N)Cc1cn(C)c2ccccc12.Cl , what is its reported Cmax/dose?
22

For Cl.Cn1cc(C[C@@H](N)C(=O)OCC(N)C(=O)O)c2ccccc21 (single isomer, unassigned) , what is its reported Cmax/dose?
13.3

For CCOC(=O)[C@@H](Cc1cn(C)c2ccccc12)NC(=O)[C@@H](N)CCC(N)=O.Cl , what is its reported Cmax/dose?
24.4

For CC(C)C(NC(=O)[C@H](N)Cc1cn(C)c2ccccc12)C(=O)O.Cl (single isomer, unassigned) , what is its reported Cmax/dose?
1.6

For Cl.Cn1cc(C[C@@H](NC(=O)[C@@H](N)CCCCN)C(=O)O)c2ccccc21 , what is its reported Cmax/dose?
16.7

For CCOC(=O)[C@@H](Cc1cn(C)c2ccccc12)NC(=O)[C@@H](N)Cc1ccccc1.Cl , what is its reported Cmax/dose?
7.9

For Cn1cc(C[C@@H](N)C(=O)O)c2ccccc21 , what is its reported Cmax/dose?
17.3

For CC(C)[C@H](N)C(=O)N[C@H](Cc1cn(C)c2ccccc12)C(=O)O.Cl , what is its reported Cmax/dose?
14.2
